Tested on: Human Microvascular Endothelial Cells (HMVEC)
procedure.details: Endothelial cell migration assay (modified Boyden chamber, bFGF-stimulated)
Format: cell-based
condition.parameters: HMVEC migration toward bFGF, 4 hours at 37° C., percent inhibition of migration compared to a positive control
Listed here are compounds together with their documented % inhibition at 200 nM test compound.
Numbers only here, please. The scale is %.

compound	tested.on	reported
COC(=O)c1ccc(NC(=O)[C@H](CCCCNC(=O)OCc2ccccc2)NC(C)=O)cc1-c1cccc(OCc2ccccc2)c1 [Example 12]	Human Microvascular Endothelial Cells (HMVEC)	29

Shift focus to the following entry.
Lookup: Item CC(=O)N[C@@H](CCCCN)C(=O)Nc1ccc(C(=O)O)c(-c2cccc(O)c2)c1 [Example 15] has what recorded % inhibition at 200 nM test compound?
Found: 64
